PROTOCOL_TEXT: Third PK study: intravenous dose on day 1 or on day 6 after 5 days oral dosing
Format: in vivo, female Swiss Albino mice
TEST_CONDITIONS: female, Swiss Albino, mouse, plasma, iv, 5 mg/kg, 5 mg/kg i.v., both groups; read-out: half-life
QUANTITY_KIND: half-life

>  <SMILES_ENTRY>
COc1cc(N2CCNCC2)ccc1Nc1ncc2c(n1)-n1ccc(C(=O)Nc3c(C)cccc3C)c1CC2

>  <QUANTITY_KIND>
half-life

>  <EXPERIMENTAL_RESULT>
4 to 4.7 h

$$$$

----------
PROTOCOL_TEXT: Third PK study: intravenous dose on day 1 or on day 6 after 5 days oral dosing
Assay type: in vivo, female Swiss Albino mice
TEST_CONDITIONS: female, Swiss Albino, mouse, plasma, iv, 5 mg/kg, Group 2, Day 6: 5 mg/kg i.v. after 10 mg/kg oral daily for 5 days, female mice

>  <SMILES_ENTRY>
COc1cc(N2CCNCC2)ccc1Nc1ncc2c(n1)-n1ccc(C(=O)Nc3c(C)cccc3C)c1CC2

>  <READOUT_UNITS>
ng·h/mL

>  <AUC(0-t)>
1480

$$$$
